# Test system: Botrytis cinerea
# test_name: Eggplant grey mold
# Type: in vivo
# Parameters: key: 0: No disease control; 1: Low level of control; 2: Moderate control; 3: High level of control
# measurement_setup: eggplant sprayed with 500 ppm, inoculated 24 h later, rated after 3-4 days
# Protocol: Eggplant seed are planted in 2.25" square pots, six per pot, and maintained in growth chambers set at 23° C., 80% humidity, and 12 h photoperiod. When the plants are at the cotyledon stage (14-18 days afterplanting), the plants are sprayed with 1.5 mL/pot of 500, 100 or 20 ppm 2:3 acetone:water (with 0.5% Tween® 20) formulations of the test compounds. Twenty-four hours later the plants are inoculated with Botrytis cinerea, approximately 0.5 mL/pot of a 4×10^6 spore/mL suspension. […]
measurement_type: Disease Control Rating at 500 ppm
Write the number on its own, no unit after it.

Below, each entry is followed by its recorded Disease Control Rating at 500 ppm result.
{"columns": ["molecule", "Disease Control Rating at 500 ppm"],
 "data": [
  ["Cn1cc(C(=O)Nc2ccccc2C2=CCCC2(C)C)c(C(F)F)n1", 2],
  ["Cn1nc(C(F)(F)F)c(C(=O)Nc2ccccc2[C@@H]2C[C@H]3CC[C@@H]2C3)c1Cl (relative stereo)", 0],
  ["Cn1cc(C(=O)Nc2ccccc2C2CCCCC2)c(OC(F)F)n1", 0],
  ["Cn1cc(C(=O)Nc2ccccc2C2CCCCC2)c(C(F)F)n1", 3],
  ["Cn1cc(C(=O)Nc2ccccc2C2CCCCC2)c(C(F)(F)F)n1", 3],
  ["Cn1cc(C(=O)Nc2ccccc2OCCCC2CCCC2)c(C(F)F)n1", 0]
]}

Q: Entry CC1CC=C(c2ccccc2NC(=O)c2cn(C)nc2C(F)(F)F)C1 (stereo not drawn) needs its Disease Control Rating at 500 ppm filled in; supply it.
Result: 2

Q: Consider the molecule `Cn1cc(C(=O)Nc2ccccc2OCC2CCC2)c(C(F)F)n1` and give its recorded Disease Control Rating at 500 ppm.
Result: 0

Q: Return Disease Control Rating at 500 ppm (reported value) for this molecule: `Cn1cc(C(=O)Nc2ccccc2O[C@H]2CC[C@@H](C)CC2)c(C(F)(F)F)n1`
Result: 0

Q: Identify measured Disease Control Rating at 500 ppm corresponding to `Cn1cc(C(=O)Nc2ccccc2OC2(C)CCCC2)c(C(F)F)n1`
Result: 3

Q: Dear colleague, please send me the reported Disease Control Rating at 500 ppm for CCC1CCCC(C)=C1c1ccccc1NC(=O)c1cn(C)nc1C(F)(F)F (stereo not drawn) when you can.
Result: 0

Q: Output Disease Control Rating at 500 ppm of `Cc1c(C(=O)Nc2ccccc2C2CCCC2)c(C(F)(F)F)nn1C`
Result: 0

Q: Determine from records and report Disease Control Rating at 500 ppm for `Cn1cc(C(=O)Nc2ccccc2OCC2CCCC2)c(C(F)(F)F)n1`
Result: 0

Q: Query Disease Control Rating at 500 ppm for `Cn1cc(C(=O)Nc2cccc(F)c2C2CCCCC2)c(C(F)F)n1`
Result: 2

Q: Tell me Disease Control Rating at 500 ppm reported for `Cn1cc(C(=O)Nc2ccccc2C2CCCCCC2)c(Br)n1`
Result: 1
